system: Bcap-37; experiment: Breast cancer cell viability, 48 hours, MTA assay; assay type: cell-based; settings: Homo sapiens, Bcap37, 48 h
ASSAY ENDPOINT: IC50
Just the number plus its unit, please.

Q. Which value of IC50 has been reported for O=C(CCCCCCNC(=O)c1cnc(N(c2ccccc2)c2ccccc2)nc1)NO in the records?
A. 7.66 µM
